TGI for assorted compounds
Test system: LOX IMVI melanoma
test.name: NCI tumour cell line growth inhibition, 48 h

Noted for COC(=O)[C@H](Cc1ccccc1)NC(=O)OCC1OC(n2cc(C)c(=O)[nH]c2=O)CC1N=[N+]=[N-] (some centres undefined) : its TGI reads > 100 µM

Measured TGI of `CC1=C/C(=N\NS(=O)(=O)c2ccc([N+](=O)[O-])cc2)CC(C)(C)C1` : > 100 µM

The reported TGI of the compound `COC(=O)c1ccc(Oc2nc3ccc(C(F)(F)F)cc3nc2-c2ccccc2)cc1` was > 100 µM

The compound listed as `CCOC(=O)c1ccc(Nc2nc3ccccc3n3cccc23)cc1` has a reported TGI of > 100 µM
